Target: Cytochrome P450 2C9 (Homo sapiens, UniProt P11712)
Sequence (P11712 whole entry): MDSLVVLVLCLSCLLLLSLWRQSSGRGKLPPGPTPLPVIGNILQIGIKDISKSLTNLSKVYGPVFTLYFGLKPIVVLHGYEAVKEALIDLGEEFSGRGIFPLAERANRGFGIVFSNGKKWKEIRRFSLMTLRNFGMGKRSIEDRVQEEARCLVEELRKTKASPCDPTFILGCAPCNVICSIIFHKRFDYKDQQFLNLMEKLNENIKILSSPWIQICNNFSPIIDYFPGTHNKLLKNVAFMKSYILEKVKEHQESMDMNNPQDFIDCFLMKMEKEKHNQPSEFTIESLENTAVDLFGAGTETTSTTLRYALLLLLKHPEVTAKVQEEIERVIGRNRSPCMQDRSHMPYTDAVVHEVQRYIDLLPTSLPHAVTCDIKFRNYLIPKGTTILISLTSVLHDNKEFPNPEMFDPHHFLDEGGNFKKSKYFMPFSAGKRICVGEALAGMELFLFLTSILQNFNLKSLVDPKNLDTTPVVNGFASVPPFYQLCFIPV
attribute-measured: AC50

Observed AC50, Cytochrome P450 2C9 (Homo sapiens, UniProt P11712), `Oc1ccc(Br)cc1CNn1cnnc1` : 17.8 µM (inconclusive)

Observed AC50, Cytochrome P450 2C9 (Homo sapiens, UniProt P11712), `CCN(CC)c1ccc(SS(=O)(=O)O)cc1` : 5.01 µM (inconclusive)

Observed AC50, Cytochrome P450 2C9 (Homo sapiens, UniProt P11712), `COc1cccc(-c2cncnc2NCc2ccccc2OC)c1` : 0.631 µM (inconclusive)

Observed AC50, Cytochrome P450 2C9 (Homo sapiens, UniProt P11712), `O=C1CC(=O)N(CCc2ccc(F)cc2)C(=O)N1` : 25.1 µM (inconclusive)

Observed AC50, Cytochrome P450 2C9 (Homo sapiens, UniProt P11712), `COc1ccc2c(c1)CCc1c(C(=O)N3CCCCCC3)noc1-2` : 25.1 µM (inconclusive)

Quick batch: AC50 for everything below.
1. CCNc1ncc2nc(-c3cn(C)c4ccccc34)c(=O)n(Cc3ccc(F)cc3)c2n1
2. O=C(O)CCc1ccc(-c2ccccc2)[nH]1
3. COC(=O)[C@@]1(Cc2ccccc2)[C@H]2c3cc(C(=O)N(C)C)n(CCN4CNCC4=O)c3C[C@H]2CN1C(=O)c1ccccc1

result:
25.1 µM (inconclusive)
3.16 µM (inconclusive)
25.1 µM (inconclusive)

Quick batch: AC50 for everything below.
1. Cc1ccc2c(c1)N(CCC(=O)NCCN1CCOCC1)C(=O)CO2
2. Cc1ccc(C(=O)O)cc1N1C(=O)c2cccc3cc(Br)cc(c23)C1=O

result:
1. 39.8 µM (inconclusive)
2. 15.8 µM (inconclusive)

Quick batch: AC50 for everything below.
1. CC(=O)c1c(O)cc(=O)n(-c2ccccc2)c1-c1ccc(C)cc1
2. COc1ccc(C(=O)Nc2cccc(/C(C)=N/NC(=O)c3ccc([N+](=O)[O-])cc3)c2)cc1OC

result:
1. 15.8 µM (inconclusive)
2. 2.51 µM (inconclusive)

Quick batch: AC50 for everything below.
1. COC(=O)C1Cc2c([nH]c3ccccc23)CN1 (configuration not stated)
2. CCOC(=O)CN1N=C(/C=C/c2ccc(C)cc2)CCC1=O
3. CC(=O)N1CCC2(CCCN(C(c3ccccc3)c3ccccc3)C2)CC1
4. Cc1ccccc1NC(=O)CSc1nc(N2CCCCC2)nc(N2CCCCC2)n1
5. Cn1cc(C(=O)c2ccc(Cl)cc2Cl)cc1C(=O)O

result:
["25.1 µM (inconclusive)", "28.2 µM (inconclusive)", "31.6 µM (inconclusive)", "0.00891 µM (inconclusive)", "14.1 µM (inconclusive)"]
